B1: NP_009172.2 (parent)
chain: LPALFTDLYSQEITAEEAREALP

- Variants of: B1
- test method notes: protein stability index of a GFP-peptide fusion (GPS, HEK-293T) (PSI 1-6); higher = more stable;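 further: lentivirally expressed fusion library, cells FACS-sorted into six equal-sized GFP/DsRed ratio bins, PSI computed from sequencing read fractions per bin weighted by bin number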
- measurement conditions: c terminus: native
readout kind: protein stability index
Numbers only.

I13T; 3.09

For every item below, please supply its protein stability index.
1. E20L
2. Q11M
3. E20A
4. L1T
5. A18R
6. D7Q

[A]
2.51
2.54
2.41
2.4
2.45
2.63

State recorded protein stability index for all listed variants.
1. L1W
2. A21W
3. R19H
4. L1Q
5. A18T

[A]
[2.68, 2.19, 2.82, 2.5, 3.04]

// for each variant below, give its protein stability index
1. A21D
2. A15F
3. L1D
4. E12A

[A]
[3.67, 2.53, 3.9, 3.56]
